# runDescription: Cmax in dog at 5 mg/kg, po coadministered with 5 mg/kg ritonavir
# Format: ADME, organism-based, Canis lupus familiaris
# Set-up: dose 5 mg/kg, route oral
# studyConditions: in vivo
propertyMeasured: Cmax (ng/mL)

smilesEntry: COC(=O)N[C@H](C(=O)N[C@H](Cc1ccc(-c2ccccn2)cc1)C[C@H](O)[C@H](Cc1ccccc1)NC(=O)[C@@H](N1CCN(Cc2cccc(C(C)(C)O)n2)C1=O)C(C)(C)C)C(C)(C)C
propertyMeasured: Cmax
recordedValue: 2560
--
smilesEntry: COC(=O)N[C@H](C(=O)N[C@@H](Cc1ccc(-c2ccccn2)cc1)C[C@H](O)[C@H](Cc1ccccc1)NC(=O)[C@@H](N1CCN(Cc2ccccc2)C1=O)C(C)(C)C)C(C)(C)C
propertyMeasured: Cmax
recordedValue: 5890

* * *

# targetOrSystem: Cytochrome P450 2C9 (Homo sapiens, UniProt P11712)
# Sequence (P11712 whole entry): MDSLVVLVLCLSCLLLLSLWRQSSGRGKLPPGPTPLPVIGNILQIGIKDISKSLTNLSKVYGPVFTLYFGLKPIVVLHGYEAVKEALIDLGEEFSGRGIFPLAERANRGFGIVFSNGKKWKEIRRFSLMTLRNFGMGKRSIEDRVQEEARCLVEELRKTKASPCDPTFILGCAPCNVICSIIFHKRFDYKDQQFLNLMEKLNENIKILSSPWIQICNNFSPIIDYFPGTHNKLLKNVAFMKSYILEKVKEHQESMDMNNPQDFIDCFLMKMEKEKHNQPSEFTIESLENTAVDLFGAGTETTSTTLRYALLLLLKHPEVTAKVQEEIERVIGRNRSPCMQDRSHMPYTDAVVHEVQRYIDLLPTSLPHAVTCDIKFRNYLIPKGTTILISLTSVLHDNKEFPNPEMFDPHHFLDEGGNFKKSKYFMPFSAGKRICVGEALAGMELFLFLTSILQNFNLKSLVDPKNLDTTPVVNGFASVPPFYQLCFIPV
pIC50: −log10 of the molar value.

smilesEntry: COC(=O)N[C@H](C(=O)N[C@@H](Cc1ccc(-c2ccccn2)cc1)C[C@H](O)[C@H](Cc1ccccc1)NC(=O)[C@@H](N1CCN(Cc2ccccc2)C1=O)C(C)(C)C)C(C)(C)C
pIC50: < 5.00
//
smilesEntry: COC(=O)N[C@H](C(=O)N[C@H](Cc1ccc(-c2ccccn2)cc1)C[C@H](O)[C@H](Cc1ccccc1)NC(=O)[C@@H](N1CCN(Cc2cccc(C(C)(C)O)n2)C1=O)C(C)(C)C)C(C)(C)C
pIC50: < 5.30

* * *

# Tested on: Human immunodeficiency virus 1
# runDescription: Antiviral activity against HIV1 bearing protease gene with A17 mutation infected in human MT4 cells after 5 days by MTT assay
# Type: functional, organism-based
# studyConditions: Human immunodeficiency virus 1, MT4, 120 h
Below is a list of entries, each paired with its recorded EC50 value.

smilesEntry: COC(=O)N[C@H](C(=O)N[C@@H](Cc1ccc(-c2ccccn2)cc1)C[C@H](O)[C@H](Cc1ccccc1)NC(=O)[C@@H](N1CCN(Cc2ccc(N)cc2)C1=O)C(C)(C)C)C(C)(C)C
EC50 / nM: 30
//
smilesEntry: COC(=O)N[C@H](C(=O)N[C@@H](Cc1ccc(-c2ccccn2)cc1)[C@@H](O)C[C@H](Cc1ccccc1)NC(=O)[C@@H](N1CCN(Cc2csc(-c3cccnc3)n2)C1=O)C(C)(C)C)C(C)(C)C
EC50 / nM: 1
//
smilesEntry: COC(=O)N[C@H](C(=O)N[C@H](Cc1ccc(-c2ccccn2)cc1)C[C@H](O)[C@H](Cc1ccccc1)NC(=O)[C@@H](N1CCN(Cc2ccccc2)C1=O)C(C)(C)C)C(C)(C)C
EC50 / nM: 37

* * *

# runDescription: Half life in Sprague-Dawley rat at 5 mg/kg, iv
# Format: ADME, organism-based
# Design: dose 5 mg/kg, route intravenous
# studyConditions: in vivo
propertyMeasured: half-life (min)

smilesEntry: COC(=O)N[C@H](C(=O)N[C@@H](Cc1ccc(-c2ccccn2)cc1)[C@@H](O)C[C@H](Cc1ccccc1)NC(=O)[C@@H](N1CCN(Cc2ccnc3ccccc23)C1=O)C(C)(C)C)C(C)(C)C
propertyMeasured: half-life
recordedValue: 24

smilesEntry: COC(=O)N[C@H](C(=O)N[C@@H](Cc1ccc(-c2ccccn2)cc1)C[C@H](O)[C@H](Cc1ccccc1)NC(=O)[C@@H](N1CCN(Cc2cccc(C(C)(C)O)n2)C1=O)C(C)(C)C)C(C)(C)C
propertyMeasured: half-life
recordedValue: 60

smilesEntry: COC(=O)N[C@H](C(=O)N[C@@H](Cc1ccc(-c2ccccn2)cc1)C[C@H](O)[C@H](Cc1ccccc1)NC(=O)[C@@H](N1CCN(Cc2ccccc2N)C1=O)C(C)(C)C)C(C)(C)C
propertyMeasured: half-life
recordedValue: 72

smilesEntry: COC(=O)N[C@H](C(=O)N[C@@H](Cc1ccc(-c2ccccn2)cc1)[C@@H](O)C[C@H](Cc1ccccc1)NC(=O)[C@@H](N1CCN(Cc2csc(-c3cccnc3)n2)C1=O)C(C)(C)C)C(C)(C)C
propertyMeasured: half-life
recordedValue: 48

smilesEntry: COC(=O)N[C@H](C(=O)N[C@H](Cc1ccc(-c2ccccn2)cc1)C[C@H](O)[C@H](Cc1ccccc1)NC(=O)[C@@H](N1CCN(Cc2nc3ccccc3n2C)C1=O)C(C)(C)C)C(C)(C)C
propertyMeasured: half-life
recordedValue: 42

* * *

# runDescription: AUC in Sprague-Dawley rat at 5 mg/kg, po in presence of ritonavir
# Type: ADME, organism-based
# Design: dose 5 mg/kg, route oral
# studyConditions: plasma
Below is a list of entries, each paired with its recorded AUC value.
propertyMeasured: AUC (ng·h/mL)

smilesEntry: COC(=O)N[C@H](C(=O)N[C@H](Cc1ccc(-c2ccccn2)cc1)C[C@H](O)[C@H](Cc1ccccc1)NC(=O)[C@@H](N1CCN(Cc2nc3ccccc3n2C)C1=O)C(C)(C)C)C(C)(C)C
propertyMeasured: AUC
valueUnit: ng·h/mL
recordedValue: 1170

smilesEntry: COC(=O)N[C@H](C(=O)N[C@H](Cc1ccc(-c2ccccn2)cc1)C[C@H](O)[C@H](Cc1ccccc1)NC(=O)[C@@H](N1CCN(Cc2cccc(C(C)(C)O)n2)C1=O)C(C)(C)C)C(C)(C)C
propertyMeasured: AUC
valueUnit: ng·h/mL
recordedValue: 12900

smilesEntry: COC(=O)N[C@H](C(=O)N[C@@H](Cc1ccc(-c2ccccn2)cc1)[C@@H](O)C[C@H](Cc1ccccc1)NC(=O)[C@@H](N1CCN(Cc2ccnc3ccccc23)C1=O)C(C)(C)C)C(C)(C)C
propertyMeasured: AUC
valueUnit: ng·h/mL
recordedValue: 3300

* * *

# runDescription: AUC in Sprague-Dawley rat at 5 mg/kg, po in presence of ritonavir
# Format: ADME, organism-based
# Set-up: dose 5 mg/kg, route oral
# studyConditions: plasma
Below is a list of entries, each paired with its recorded log10 of AUC value.
propertyMeasured: log10 of AUC (log10 of the value in ng·h/mL)

smilesEntry: COC(=O)N[C@H](C(=O)N[C@@H](Cc1ccc(-c2ccccn2)cc1)[C@@H](O)C[C@H](Cc1ccccc1)NC(=O)[C@@H](N1CCN(Cc2csc(C)n2)C1=O)C(C)(C)C)C(C)(C)C
log10 of AUC: 3.92
//
smilesEntry: COC(=O)N[C@H](C(=O)N[C@@H](Cc1ccc(-c2ccccn2)cc1)C[C@H](O)[C@H](Cc1ccccc1)NC(=O)[C@@H](N1CCN(Cc2cccc(C(C)(C)O)n2)C1=O)C(C)(C)C)C(C)(C)C
log10 of AUC: 2.92
//
smilesEntry: COC(=O)N[C@H](C(=O)N[C@@H](Cc1ccc(-c2ccccn2)cc1)[C@@H](O)C[C@H](Cc1ccccc1)NC(=O)[C@@H](N1CCN(Cc2csc(-c3cccnc3)n2)C1=O)C(C)(C)C)C(C)(C)C
log10 of AUC: 2.41
//
smilesEntry: COC(=O)N[C@H](C(=O)N[C@@H](Cc1ccc(-c2ccccn2)cc1)C[C@H](O)[C@H](Cc1ccccc1)NC(=O)[C@@H](N1CCN(Cc2ccnc3ccccc23)C1=O)C(C)(C)C)C(C)(C)C
log10 of AUC: 3.46
//
smilesEntry: COC(=O)N[C@H](C(=O)N[C@@H](Cc1ccc(-c2ccccn2)cc1)C[C@H](O)[C@H](Cc1ccccc1)NC(=O)[C@@H](N1CCN(Cc2cccc(C)c2)C1=O)C(C)(C)C)C(C)(C)C
log10 of AUC: 3.43

* * *

# System: Human immunodeficiency virus 1
# runDescription: Antiviral activity against HIV1 bearing protease gene with A17 mutation infected in human MT4 cells after 5 days by MTT assay
# Type: functional, organism-based
# studyConditions: Human immunodeficiency virus 1, MT4, 120 h
Below is a list of entries, each paired with its recorded EC50 value.

smilesEntry: COC(=O)N[C@H](C(=O)N[C@@H](Cc1ccc(-c2ccccn2)cc1)[C@@H](O)C[C@H](Cc1ccccc1)NC(=O)[C@@H](N1CCN(Cc2csc(C)n2)C1=O)C(C)(C)C)C(C)(C)C
EC50 / µM: 0.002
--
smilesEntry: COC(=O)N[C@H](C(=O)N[C@@H](Cc1ccc(-c2ccccn2)cc1)[C@@H](O)C[C@H](Cc1ccccc1)NC(=O)[C@@H](N1CCN(Cc2ccnc3ccccc23)C1=O)C(C)(C)C)C(C)(C)C
EC50 / µM: 0.001
--
smilesEntry: COC(=O)N[C@H](C(=O)N[C@@H](Cc1ccc(-c2ccccn2)cc1)C[C@H](O)[C@H](Cc1ccccc1)NC(=O)[C@@H](N1CCN(Cc2cccc(F)c2)C1=O)C(C)(C)C)C(C)(C)C
EC50 / µM: 0.038
--
smilesEntry: COC(=O)N[C@H](C(=O)N[C@@H](Cc1ccccc1)[C@@H](O)CN(Cc1ccc(-c2ccccn2)cc1)NC(=O)[C@@H](NC(=O)OC)C(C)(C)C)C(C)(C)C
EC50 / µM: 0.25
--
smilesEntry: COC(=O)N[C@H](C(=O)N[C@H](Cc1ccc(-c2ccccn2)cc1)C[C@H](O)[C@H](Cc1ccccc1)NC(=O)[C@@H](N1CCN(Cc2csc(C)n2)C1=O)C(C)(C)C)C(C)(C)C
EC50 / µM: 0.012
--
smilesEntry: COC(=O)N[C@H](C(=O)N[C@@H](Cc1ccccc1)C[C@H](O)[C@H](Cc1ccccc1)NC(=O)[C@@H](N1CCN(Cc2cccc(C)n2)C1=O)C(C)(C)C)C(C)(C)C
EC50 / µM: 0.088
--
smilesEntry: COC(=O)N[C@H](C(=O)N[C@@H](Cc1ccc(-c2ccccn2)cc1)C[C@H](O)[C@H](Cc1ccccc1)NC(=O)[C@@H](N1CCN(Cc2ccccc2OC)C1=O)C(C)(C)C)C(C)(C)C
EC50 / µM: 0.049
--
smilesEntry: COC(=O)N[C@H](C(=O)N[C@@H](Cc1ccc(-c2ccccn2)cc1)C[C@H](O)[C@H](Cc1ccccc1)NC(=O)[C@@H](N1CCN(Cc2cccc(OC)c2)C1=O)C(C)(C)C)C(C)(C)C
EC50 / µM: 0.053
--
smilesEntry: COC(=O)N[C@H](C(=O)N[C@H](Cc1ccc(-c2ccccn2)cc1)C[C@H](O)[C@H](Cc1ccccc1)NC(=O)[C@@H](N1CCN(Cc2csc(-c3cccnc3)n2)C1=O)C(C)(C)C)C(C)(C)C
EC50 / µM: 0.007
--
smilesEntry: COC(=O)N[C@H](C(=O)N[C@@H](Cc1ccc(-c2ccccn2)cc1)C[C@H](O)[C@H](Cc1ccccc1)NC(=O)[C@@H](N1CCN(Cc2nc3ccccc3n2C)C1=O)C(C)(C)C)C(C)(C)C
EC50 / µM: 0.032
